# Tested on: Cytochrome P450 2D6 (Homo sapiens) (UniProt P10635)
# Sequence (P10635 whole entry, looked up): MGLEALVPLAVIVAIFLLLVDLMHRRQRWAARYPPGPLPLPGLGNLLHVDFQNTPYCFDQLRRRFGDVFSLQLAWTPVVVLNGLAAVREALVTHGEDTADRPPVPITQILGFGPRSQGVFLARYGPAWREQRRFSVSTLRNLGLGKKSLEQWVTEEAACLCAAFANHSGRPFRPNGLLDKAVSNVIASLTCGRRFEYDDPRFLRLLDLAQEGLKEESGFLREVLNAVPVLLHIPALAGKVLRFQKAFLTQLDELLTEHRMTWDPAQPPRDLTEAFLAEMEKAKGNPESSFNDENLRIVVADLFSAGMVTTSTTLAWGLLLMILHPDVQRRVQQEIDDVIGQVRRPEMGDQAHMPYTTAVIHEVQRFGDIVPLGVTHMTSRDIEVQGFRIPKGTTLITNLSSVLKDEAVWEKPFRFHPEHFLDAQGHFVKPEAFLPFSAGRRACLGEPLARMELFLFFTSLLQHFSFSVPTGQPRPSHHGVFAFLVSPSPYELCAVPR
# Assay notes: Cytochrome panel assay with activity outcomes
# Measurement context: recombinant CYP, pro-luciferin dealkylation, luminescence, p450-cyp2d6; series mostly up to 57.1 µM
In all, about 16,000 compounds went through this assay and about 2,600 (16%) were called active. Roughly 20% stayed inconclusive and do not appear here. These entries were drawn from the full list.

Molecule | AC50
O=S(=O)(c1cccc2nsnc12)N1CCCC1 | inactive
CN(CCCNC(=O)C1CCN(S(=O)(=O)c2cccc3nsnc23)CC1)Cc1ccccc1 | 5.01 µM (active)
C[C@@]12CCC(=O)C=C1CC[C@@H]1[C@@H]2[C@H](O)C[C@]2(C)[C@@H]1CC[C@]2(O)C(=O)CO | inactive
Cc1ccccc1OCC(=O)Nc1sc(C(=O)Nc2cccc(C)c2C)c(C)c1C#N | inactive

---

# Tested on: Cytochrome P450 2D6 (Homo sapiens) (UniProt P10635)
# Assay notes: Cytochrome panel assay with activity outcomes
# Measurement context: recombinant CYP, pro-luciferin dealkylation, luminescence, p450-cyp2d6; series mostly up to 57.1 µM
Screen size: about 16,000 compounds; about 2,600 (16%) were called active. Roughly 20% stayed inconclusive and do not appear here. The call rests on the fitted dose curve; in most records, active means well fitted curve in the direction sought with a large enough effect; inconclusive means small, poorly fitted or top-dose-only effect, or effect the other way; inactive means no such curve, though single readings can be large or run the other way. A selection follows.
Return exactly one item of 1 (yes) (active), 0 (no) (inactive)

Before answering, review these 3 worked examples.
Compound | Cat
COc1ccc(C2(CNC(=O)/C=C/c3ccco3)CCCC2)cc1OC | 0 (no)
O=C(NNC(=O)c1cc2cc3ccccc3nc2s1)c1cccc(C(F)(F)F)c1 | 0 (no)
Cc1cc(NC(=O)CSc2nc3ccccc3c(=O)n2CCCC(=O)NCc2ccco2)n[nH]1 | 1 (yes)

input: Field: outcome | Entry: O=C(NCC1CCCO1)c1ccc2c(=O)n(Cc3ccco3)c(SCC(=O)N3CCCC3)nc2c1 (configuration not stated)
output: 0 (no)

input: Recorded call for Clc1ccc(/C=N/c2c(-c3ccc(Cl)cc3)nc3n2CCS3)cc1 ?
output: 0 (no)

input: Assay result, entry CCCn1cnc2c1c(=O)n(CCCCC(C)=O)c(=O)n2C — outcome?
output: 0 (no)

input: How was O=C(Nc1ccccc1Cl)c1ccn[nH]1 classified in this test?
output: 0 (no)

---

# Tested on: Cytochrome P450 2D6 (Homo sapiens) (UniProt P10635)
# Assay notes: Cytochrome panel assay with activity outcomes
# Measurement context: recombinant CYP, pro-luciferin dealkylation, luminescence, p450-cyp2d6; series mostly up to 57.1 µM
Among all 16,000 compounds or so, about 2,600 (16%) were called active. Roughly 20% stayed inconclusive and do not appear here. Calls follow the shape of the dose curve; as a rule, active = well fitted curve in the direction sought with a large enough effect; inconclusive = small, poorly fitted or top-dose-only effect, or effect the other way; inactive = no such curve, though single readings can be large or run the other way. Not all results are given here.
// one of active, inactive, no free text

Compound | Cat
CC(=O)SCC[N+](C)(C)C | inactive
COC(=O)c1nn(-c2ccc(OC)cc2)c(=O)cc1Oc1cccc(Cl)c1 | inactive
CS(=O)(=O)N1CCC2(CCCN(C(=O)Nc3cccc(C#N)c3)C2)CC1 | inactive

input: What is the recorded call for this compound in the test? NC(=O)c1cc[n+](CC2=C(C(=O)O)N3C(=O)[C@@H](NC(=O)[C@H](c4ccccc4)S(=O)(=O)[O-])[C@@H]3SC2)cc1
output: inactive

input: Hey, what did the test say about COc1ccc(N(C)C(=O)c2ccc3nc(-c4ccccc4)c(-c4ccccc4)nc3c2)cc1 ?
output: inactive

input: Field: outcome | Entry: COc1ccc(CCNC(=O)c2ccc3c(=O)n(Cc4ccco4)c(=S)[nH]c3c2)cc1OC
output: inactive

input: Tell me the assay call for Cc1ccccc1-c1nc(N(C)C)c2ccccc2n1 please.
output: active

input: Kindly provide the recorded test outcome for the following compound: CC1=C(C(N)=O)C(c2ccccc2)n2nc(-c3ccncc3)nc2N1 (stereo not drawn)
output: inactive

input: I'd appreciate the recorded outcome for O=C(NNC(=S)Nc1ccccc1)C1CC1 from this test.
output: inactive

# credit: PubChem BioAssay AID1851
